# METHOD NOTES: in vitro
# EXPERIMENTAL SETUP: human, hela cells, % viability

- CHEM SMILES: "O=C(/C=C/c1ccccc1)NC(=S)Nc1ccc2oc(-c3ccncc3)nc2c1"
  viability at 28.5 h, 10 µM [%]: 93.8
- CHEM SMILES: "COc1ccccc1-c1nccnc1N(C)Cc1ccccc1"
  viability at 28.5 h, 10 µM [%]: 102
- CHEM SMILES: "COc1cccc(Cn2c(=O)n(C)c3ncccc32)c1"
  viability at 28.5 h, 10 µM [%]: 81.1

====

Reported viability at 28.5 h, 10 µM values for the following compounds.
# METHOD NOTES: in vitro
# EXPERIMENTAL SETUP: human, hela cells, % viability

- COMPOUND: "CC(=O)Nc1cccc(NC(=O)c2ccc(CN3CCc4ccccc4C3)cc2)c1 [CBK269534]"
  viability at 28.5 h, 10 µM, %: 92.2
- COMPOUND: "O=C(O)c1c[nH]nc1-c1ccc(Br)cc1 [CBK266368]"
  viability at 28.5 h, 10 µM, %: 91.5
- COMPOUND: "CCCC(=O)Nc1ccc(C(=O)O)cc1NC(=O)CCC [CBK286939]"
  viability at 28.5 h, 10 µM, %: 92.3
- COMPOUND: "CCOC(=O)CS(=O)(=O)Cc1cc(Cl)nc(Cl)c1 [CBK005544]"
  viability at 28.5 h, 10 µM, %: 109
- COMPOUND: "Cc1cc(C)n2c(SCc3ccccc3)nnc2n1 [CBK025780]"
  viability at 28.5 h, 10 µM, %: 82
- COMPOUND: "CSc1c(C#N)c(-c2cc(C(C)(C)C)on2)nn1C [CBK006360]"
  viability at 28.5 h, 10 µM, %: 96.4
- COMPOUND: "C[C@@H](c1ccccc1)n1c(=O)[nH]c2ncc(-c3ccc(C(=O)NC4CCCC4)cc3)nc21 [CBK064542]"
  viability at 28.5 h, 10 µM, %: 91.2
- COMPOUND: "COc1ccc2cc(/C=C(\\C#N)c3nc(-c4cc5c(ccc6ccccc65)oc4=O)cs3)c(Cl)nc2c1 [CBK261636]"
  viability at 28.5 h, 10 µM, %: 94
- COMPOUND: "O=C(NCC1CCCCC1)C1(Cc2cccc(-c3cccnc3)c2)CCOCC1 [CBK285607]"
  viability at 28.5 h, 10 µM, %: 97.5
- COMPOUND: "C[C@H](Cn1nc2c(cc1=O)CCCCC2)NC(=O)c1cccc(F)c1 [CBK284558]"
  viability at 28.5 h, 10 µM, %: 85.8
- COMPOUND: "COc1cc(-c2cncc(Nc3ccc4c(c3)OC(F)(F)C(F)(F)O4)n2)cc(OC)c1OC [CBK065138]"
  viability at 28.5 h, 10 µM, %: 94.4
- COMPOUND: "CCCCn1nccc1NC(=O)NC(C)c1n[nH]c(C)n1 (centres unmarked) [CBK307486]"
  viability at 28.5 h, 10 µM, %: 99.4
- COMPOUND: "N#CCCN(C(=O)NC(c1ccccc1)c1ccccc1)C1CCCCC1 [CBK156354]"
  viability at 28.5 h, 10 µM, %: 98.7
- COMPOUND: "O=C(O)/C=C/c1cn([C@H]2C[C@@H](O)[C@@H](CO)O2)c(=O)[nH]c1=O [CBK201174]"
  viability at 28.5 h, 10 µM, %: 92.9
- COMPOUND: "COc1cccc2ncn(Cc3n[nH]c(C)n3)c(=O)c12 [CBK306938]"
  viability at 28.5 h, 10 µM, %: 89.7
- COMPOUND: "CCn1nc(-c2ccc(C)o2)nc1CC1NC(=O)c2ccccc21 (centres unmarked) [CBK306834]"
  viability at 28.5 h, 10 µM, %: 87
- COMPOUND: "Cc1cc(COC(=O)Nc2ccc(Cl)cc2)no1 [CBK086560]"
  viability at 28.5 h, 10 µM, %: 93.4
- COMPOUND: "COc1ccc(CN2C(=O)CC3(C2=O)C(=O)N(C)c2ccccc23)cc1OC (centres unmarked) [CBK075450]"
  viability at 28.5 h, 10 µM, %: 91.8
- COMPOUND: "CC(Sc1ccc(S(=O)(=O)N2CCN(C)CC2)cn1)C(=O)Nc1ccc(C(C)(C)C)cc1 (centres unmarked) [CBK297551]"
  viability at 28.5 h, 10 µM, %: 106
- COMPOUND: "CC(C)[C@H](NC(=O)C1CC(=O)N(c2ccc(F)cc2)C1)C(=O)N1CCC(C(=O)O)CC1 (some centres unmarked) [CBK286669]"
  viability at 28.5 h, 10 µM, %: 94.8
- COMPOUND: "O=S(=O)(c1ccccc1)n1cc2c3c(cccc31)CN(CCO)C2 [CBK156333T]"
  viability at 28.5 h, 10 µM, %: 106
- COMPOUND: "O=C1CNC(=O)N1CC(O)Cn1c2ccc(Cl)cc2c2cc(Cl)ccc21 (centres unmarked) [CBK265792]"
  viability at 28.5 h, 10 µM, %: 90.1
- COMPOUND: "O=S(=O)(N1CCCCC1)N1CCN(CC(O)COc2ccc(-c3ccccc3)cc2)CC1 (centres unmarked) [CBK269370]"
  viability at 28.5 h, 10 µM, %: 94.9
- COMPOUND: "CSc1sc(NC(=O)Nc2cccc(C(F)(F)F)c2)cc1C#N [CBK017114]"
  viability at 28.5 h, 10 µM, %: 93.9
- COMPOUND: "NS(=O)(=O)c1ccc2nc(NC(=O)c3ccc(N4C(=O)CCC4=O)cc3)sc2c1 [CBK291192]"
  viability at 28.5 h, 10 µM, %: 117
- COMPOUND: "CN(C)C(=O)Cn1nc(-c2cc3c(s2)CCCC3)oc1=O [CBK283905]"
  viability at 28.5 h, 10 µM, %: 98
